These measurements were taken from patent US10842777B2.

Biological target: TTR (Homo sapiens)
Construct: purchased Sigma; host or cells: human plasma
Experiment: Isothermal titration calorimetry (ITC)
Assay type: binding
Details: TTR 2 μM titrated with 25 μM compound, PBS pH 7.4, 25° C., two-site negative cooperativity model; read-out: Kd2
measure: Kd (nM)
Enter your answer as a number in nM; do not include the unit.

Query block: Please provide the recorded Kd for Cc1n[nH]c(C)c1CCCOc1ccccc1F [Compound A] , tested on TTR (Homo sapiens).
Result block: 500

----------
Biological target: TTR (Homo sapiens)
Construct: purchased Sigma; host or cells: human plasma
Test: Isothermal titration calorimetry (ITC)
Format: binding
Conditions: TTR 2 μM titrated with 25 μM compound, PBS pH 7.4, 25° C., two-site negative cooperativity model; read-out: Kd1
measure: pKd
Reminder that pKd is minus the log10 of a molar concentration.

Query block: Please provide the recorded pKd for Cc1n[nH]c(C)c1CCCOc1ccccc1F , tested on TTR (Homo sapiens).
Result block: 7.24
